# tgt: T1, human ICOS, full-length, expressed on transfected Expi293 cells (human, UniProt Q9Y6W8 21-199)
# T1 construct: whole, on cells
# T1 sequence (looked up): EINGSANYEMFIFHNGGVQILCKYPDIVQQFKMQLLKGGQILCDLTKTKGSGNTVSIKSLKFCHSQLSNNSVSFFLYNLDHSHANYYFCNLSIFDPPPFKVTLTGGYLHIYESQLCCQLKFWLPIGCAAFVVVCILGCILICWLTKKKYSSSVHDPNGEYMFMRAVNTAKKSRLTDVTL
# assay notes: flow cytometry, 100 nM, Expi293 cells with human ICOS
measurement name: MFI (MFI)
Give the value in MFI but do not write MFI after it.

{"binder": "variant ICOSL ECD-Fc fusion, full length N52H/N57Y/Q100R/F172S (Fc fusion, not shown: a dimerising Fc or GST) DTQEKEVRAMVGSDVELSCACPEGSRFDLNDVYVYWQTSESKTVVTYHIPQHSSLEYVDSRYRNRALMSPAGMLRGDFSLRLFNVTPQDEQKFHCLVLSRSLGFQEVLSVEVTLHVAANFSVPVVSAPHSPSQDELTFTCTSINGYPRPNVYWINKTDNSLLDQALQNDTVSLNMRGLYDVVSVLRIARTPSVNIGCCIENVLLQQNLTVGSQTGNDIGERDKITENPVSTGEKNAAT", "measurement name": "MFI", "recorded number": 238000}
{"binder": "variant ICOSL IgV-Fc fusion N52R/N57W/Q100K (Fc fusion) DTQEKEVRAMVGSDVELSCACPEGSRFDLNDVYVYWQTSESKTVVTYHIPQRSSLEWVDSRYRNRALMSPAGMLRGDFSLRLFNVTPQDEQKFHCLVLSKSLGFQEVLSVEVTLHVAANFSVGSGGGGSEPKSSDKTHTCPPCPAPEAEGAPSVFLFPPKPKDTLMISRTPEVTCVVVDVSHEDPEVKFNWYVDGVEVHNAKTKPREEQYNSTYRVVSVLTVLHQDWLNGKEYKCKVSNKALPAPIEKTISKAKGQPREPQVYTLPPSREEMTKNQVSLTCLVKGFYPSDIAVEWESNGQPENNYKTTPPVLDSDGSFFLYSKLTVDKSRWQQGNVFSCSVMHEALHNHYTQKSLSLSPG", "measurement name": "MFI", "recorded number": 349000}
{"binder": "variant ICOSL IgV-Fc fusion N52R/N57Y/Q100R (Fc fusion) DTQEKEVRAMVGSDVELSCACPEGSRFDLNDVYVYWQTSESKTVVTYHIPQRSSLEYVDSRYRNRALMSPAGMLRGDFSLRLFNVTPQDEQKFHCLVLSRSLGFQEVLSVEVTLHVAANFSVGSGGGGSEPKSSDKTHTCPPCPAPEAEGAPSVFLFPPKPKDTLMISRTPEVTCVVVDVSHEDPEVKFNWYVDGVEVHNAKTKPREEQYNSTYRVVSVLTVLHQDWLNGKEYKCKVSNKALPAPIEKTISKAKGQPREPQVYTLPPSREEMTKNQVSLTCLVKGFYPSDIAVEWESNGQPENNYKTTPPVLDSDGSFFLYSKLTVDKSRWQQGNVFSCSVMHEALHNHYTQKSLSLSPG", "measurement name": "MFI", "recorded number": 6100}

Now consider the entry below.
Query: Give its MFI value. Item: variant ICOSL IgV-Fc fusion N52A/N57F/Q100S (Fc fusion) DTQEKEVRAMVGSDVELSCACPEGSRFDLNDVYVYWQTSESKTVVTYHIPQASSLEFVDSRYRNRALMSPAGMLRGDFSLRLFNVTPQDEQKFHCLVLSSSLGFQEVLSVEVTLHVAANFSVGSGGGGSEPKSSDKTHTCPPCPAPEAEGAPSVFLFPPKPKDTLMISRTPEVTCVVVDVSHEDPEVKFNWYVDGVEVHNAKTKPREEQYNSTYRVVSVLTVLHQDWLNGKEYKCKVSNKALPAPIEKTISKAKGQPREPQVYTLPPSREEMTKNQVSLTCLVKGFYPSDIAVEWESNGQPENNYKTTPPVLDSDGSFFLYSKLTVDKSRWQQGNVFSCSVMHEALHNHYTQKSLSLSPG
Reply: 242000
